assayOverview: Drug metabolism in human liver microsomes assessed as reactive metabolite formation by measuring dGSH trapping at 10 uM measured after 60 mins in presence of NADPH regenerating system by LC-MS/MS analysis
Type: ADME, Microsome
assayConditions: 1 h
readoutName: Drug metabolism (pmol/mg/h)

P = Cc1cccc(C)c1N1CC[C@@H](N2Cc3ccccc3N(Cc3ccccc3C(F)(F)F)C2=O)C1
Q = COc1cccc(C)c1N1CC[C@@H](n2c(=O)n(Cc3ccccc3C(F)(F)F)c3c(OC)cccc32)C1
R = COc1cccc2c1n(Cc1ccccc1C(F)(F)F)c(=O)n2C1CCN(c2c(F)cccc2F)CC1
Hey, quick one: sort these by Drug metabolism, largest value first please. Would you mind listing the labels in the order asked for? Q, P, R
(Q: 1008 pmol/mg/h, P: 462 pmol/mg/h, R: 131 pmol/mg/h)

1 = COc1cccc2c1n(Cc1ccccc1C(F)(F)F)c(=O)n2[C@@H]1CCN(c2c(F)cccc2F)C1
2 = COc1cccc(F)c1N1CCC(n2c(=O)n(Cc3ccccc3C(F)(F)F)c3c(OC)cccc32)CC1
3 = Cc1cccc(C)c1N1CCC(N2Cc3ccccc3N(Cc3ccccc3C(F)(F)F)C2=O)CC1
// smallest Drug metabolism at index 0, largest at the end Would you mind listing the labels in the order asked for? 3, 1, 2
(3: 153 pmol/mg/h, 1: 764 pmol/mg/h, 2: 1133 pmol/mg/h)
